These measurements were taken from ChEMBL document CHEMBL1158669.

Give measured IC50 for each item. Keep answers brief.
Test system: P388
Experiment: Antitumor activity against mouse P388 cells after 48 hrs by MTT assay
Type: functional, cell-based
Settings: P388, 48 h
Value expressed in µg/mL; do not type the unit.

Find the measured IC50 of CC1(C)[C@@H](O)CC[C@]2(C)[C@H]3C[C@@H](O)[C@]4(C)[C@@H]5C(=CC[C@H]4[C@]3(C)CC[C@@H]12)CO[C@H]5O with P388 as test system.
0.25

Find the measured IC50 of CC(=O)O[C@@H]1C[C@@H]2[C@@]3(C)CC[C@H](O)C(C)(C)[C@@H]3CC[C@@]2(C)[C@@H]2CC=C3CO[C@@H](O)[C@@H]3[C@@]12C with P388 as test system.
0.505

Find the measured IC50 of C[C@@H]1C[C@H]1[C@H](C)C[C@@H](O)[C@@]1([C@H]2CC[C@H]3[C@@H]4CC[C@H]5CC(=O)CC[C@]5(C)[C@H]4C[C@@H](O)[C@]23C)CO1 [ARAGUSTEROL A] with P388 as test system.
0.022

Find the measured IC50 of CC1(C)C(=O)CC[C@]2(C)[C@H]3C[C@@H](O)[C@]4(C)[C@@H]5C(=CC[C@H]4[C@]3(C)CC[C@@H]12)CO[C@H]5O with P388 as test system.
0.0145

Find the measured IC50 of C[C@H](C[C@@H](O)[C@](O)(CCl)[C@H]1CC[C@H]2[C@@H]3CC[C@H]4CC(=O)CC[C@]4(C)[C@H]3C[C@@H](O)[C@]12C)[C@H]1C[C@@H]1C [ARAGUSTEROL C] with P388 as test system.
0.041

====

Tested on: P388
Experiment: Antitumor activity against mouse P388 cells after 48 hrs by MTT assay
Assay type: functional, cell-based
Details: P388, 48 h
metric name: IC50

Provide IC50 value for the following compound: CC1(C)CCC[C@]2(C)[C@H]3C[C@@H](O)[C@]4(C)[C@@H]5C(=CC[C@H]4[C@]3(C)CC[C@@H]12)CO[C@H]5O
> 1 µg/mL

Provide IC50 value for the following compound: CC(=O)O[C@@H]1C[C@@H]2[C@@]3(C)CCCC(C)(C)[C@@H]3CC[C@@]2(C)[C@@H]2CC=C3C(=O)O[C@@H](O)[C@@H]3[C@@]12C
> 1 µg/mL

Provide IC50 value for the following compound: C[C@H](CC[C@](C)(O)[C@H]1CC[C@H]2[C@@H]3CC[C@H]4CC(=O)CC[C@]4(C)[C@H]3C[C@@H](O)[C@@]21C)[C@H]1C[C@@H]1C [ARAGUSTEROL B]
> 3.3 µg/mL

Provide IC50 value for the following compound: CC1(C)CCC[C@]2(C)[C@H]3C[C@@H](O)[C@]4(C)[C@H]5OC(=O)C=C5[C@@H](O)C[C@H]4[C@]3(C)CC[C@@H]12
> 1 µg/mL
